Hey, just so you know, these numbers are from ChEMBL document CHEMBL4020850.

test: Oral bioavailability in C57BL/6 mouse at 3 mg/kg
Format: ADME, organism-based
test.parameters: in vivo
I'd appreciate it if you could supply bioavailability values for the items below.
Answers are plain numbers, in %.

// known answers, use as guide
> print(dat)
                              smiles.record  observation.type  recorded.measurement
1  O=C(O)/C=C/c1ccc(Oc2c(-c3ccc(F)cc3C(F)(F)F)sc3cc(O)ccc23)cc1   bioavailability                    30
2  CC/C(=C(/c1ccc(/C=C/C(=O)O)cc1)c1ccc2[nH]ncc2c1)c1ccc(F)cc1Cl   bioavailability                    42
3  O=C(O)/C=C/c1ccc(Oc2c(-c3ccc(C(F)(F)F)cc3)sc3cc(O)ccc23)cc1   bioavailability                    28

We next turn to a different compound, shown below.
bioavailability reported for this compound CC(F)(F)c1cc(F)ccc1-c1sc2cc(O)ccc2c1Oc1ccc(/C=C/C(=O)O)cc1 : 12
